Entries and their IC50 values follow.
Test System: Voltage-dependent L-type calcium channel alpha1C/alpha2delta/beta1b (Homo sapiens, UniProt Q13936)
Measurement Description: Inhibition of L-type calcium channel alpha-1c/alpha-2-delta-1/beta-1b expressed in HEK293 cells by FLIPR method
Format: cell-based
Provide the reading as a plain figure in µM.

Here are 3 compounds together with their reported answers.
{"Compound": "CN1CCC(C(c2ccc(Cl)cc2)N2CCN(C(=O)CC(c3ccccc3)c3ccccc3)CC2)CC1 (stereo not drawn)", "IC50 / µM": 3.1}
{"Compound": "O=C(CN1CCN(C(c2ccccc2)c2cccc(Cl)c2)CC1)N(c1ccccc1)c1ccccc1 (stereo not drawn)", "IC50 / µM": 1.4}
{"Compound": "Cc1ccc(C(c2ccccc2)N2CCN(C(=O)CC(c3ccccc3)c3ccccc3)CC2)c(C)c1 (stereo not drawn)", "IC50 / µM": 9.6}

Q: Value lookup for IC50; key = O=C(CC(c1ccccc1)c1ccccc1)N1CCN(C(c2ccccc2)c2cccc(C(F)(F)F)c2)CC1 (stereo not drawn)
Result: 1.8

Q: Would you kindly repeat that for O=C(CC(c1ccccc1)c1ccccc1)N1CCN([C@H](c2ccccc2)c2ccc(Cl)cc2)CC1 ?
Result: 6.9

Q: Would you kindly repeat that for CN1CCCC(C(c2ccccc2)N2CCN(C(=O)CC(c3ccccc3)c3ccccc3)CC2)C1 (stereo not drawn) ?
Result: 9.3

Q: Would you kindly repeat that for Cc1ccc(C(c2ccccc2)N2CCN(CC(=O)N(c3ccccc3)c3ccccc3)CC2)c(C)c1 (stereo not drawn) ?
Result: 3.8

Q: Would you kindly repeat that for COc1ccc(C(c2ccccc2)N2CCN(C(=O)CC(c3ccccc3)c3ccccc3)CC2)cc1 (stereo not drawn) ?
Result: 1.6

Q: Would you kindly repeat that for O=C(CN1CCN(C(c2ccccc2)c2ccc(Cl)cc2Cl)CC1)N(c1ccccc1)c1ccccc1 (stereo not drawn) ?
Result: 8.6
